Listed here: items and their measured IC50.
# measured.target: recombinant GST-p110γ (human PI 3-Kγ) (Homo sapiens)
# Sequence (P48736 38-1102): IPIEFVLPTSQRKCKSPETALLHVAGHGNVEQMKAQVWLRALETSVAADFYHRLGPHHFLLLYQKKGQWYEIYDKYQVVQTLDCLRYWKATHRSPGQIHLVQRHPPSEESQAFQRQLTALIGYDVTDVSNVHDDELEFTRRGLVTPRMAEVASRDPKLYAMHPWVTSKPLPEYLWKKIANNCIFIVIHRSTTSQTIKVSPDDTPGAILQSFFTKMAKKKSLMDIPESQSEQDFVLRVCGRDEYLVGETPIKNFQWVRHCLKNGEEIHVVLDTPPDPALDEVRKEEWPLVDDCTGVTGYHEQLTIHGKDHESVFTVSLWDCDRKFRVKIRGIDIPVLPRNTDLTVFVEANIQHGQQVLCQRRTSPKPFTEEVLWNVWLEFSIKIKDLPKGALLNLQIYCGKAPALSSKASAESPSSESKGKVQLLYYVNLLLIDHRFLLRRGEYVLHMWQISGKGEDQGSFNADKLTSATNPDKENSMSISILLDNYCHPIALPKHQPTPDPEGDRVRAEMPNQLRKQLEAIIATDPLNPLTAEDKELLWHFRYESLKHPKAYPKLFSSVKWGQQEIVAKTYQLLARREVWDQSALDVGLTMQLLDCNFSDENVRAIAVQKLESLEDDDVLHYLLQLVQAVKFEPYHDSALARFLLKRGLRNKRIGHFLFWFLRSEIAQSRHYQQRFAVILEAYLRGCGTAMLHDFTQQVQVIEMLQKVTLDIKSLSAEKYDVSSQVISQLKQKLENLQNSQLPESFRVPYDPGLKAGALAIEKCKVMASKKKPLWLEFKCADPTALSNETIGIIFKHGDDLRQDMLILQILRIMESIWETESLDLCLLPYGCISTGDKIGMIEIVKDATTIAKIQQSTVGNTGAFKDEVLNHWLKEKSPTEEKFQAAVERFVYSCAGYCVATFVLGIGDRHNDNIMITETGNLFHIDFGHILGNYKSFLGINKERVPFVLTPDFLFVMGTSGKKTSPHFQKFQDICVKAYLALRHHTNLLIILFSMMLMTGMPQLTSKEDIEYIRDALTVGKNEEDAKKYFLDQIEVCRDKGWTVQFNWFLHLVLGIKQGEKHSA
# procedure.text: PI 3-kinase gamma in vitro kinase assay (Scintillation Proximity Assay)
Supply the numeric figure in nM, leaving out any unit text.

Consider the reported IC50 for these molecules:
{"mol.smiles": "Nc1ncc(-c2ccc(Cl)c(Cl)c2)nc1C(=O)c1ccc(CN2CCCCC2)cc1", "measured.target": "recombinant GST-p110γ (human PI 3-Kγ) (Homo sapiens)", "unit.tag": "nM", "IC50": 753}
{"mol.smiles": "Nc1ncc(-c2cc(S(=O)(=O)N3CCOCC3)c(F)cc2F)nc1C(=O)c1cccnc1", "measured.target": "recombinant GST-p110γ (human PI 3-Kγ) (Homo sapiens)", "unit.tag": "nM", "IC50": 125}

Lab note: measured IC50 of Nc1ncc(-c2ccc(Cl)c(S(=O)(=O)Nc3ccccc3)c2)nc1C(=O)c1cccnc1 was 12

// IC50 value for Nc1ncc(-c2ccc3c(c2)OCO3)nc1C(=O)c1cccnc1 : 587

// sample Nc1ncc(-c2cccc(C(=O)O)c2)nc1C(=O)c1cccnc1 , its IC50 was 362

The molecule listed as Nc1ncc(-c2cnc(N)c(C(=O)c3cccnc3)n2)cc1C(F)(F)F has a reported IC50 of 33

// field: IC50; key: Nc1ncc(-c2cncc(C(=O)N3CCOCC3)c2)nc1C(=O)c1cccnc1 ; value = 373

So, Nc1cccc(-c2cnc(N)c(C(=O)c3cccnc3)n2)c1 ? Its IC50 was 393

Record summary for Nc1ncc(-c2cc(C(F)(F)F)cc(S(N)(=O)=O)c2)nc1C(=O)c1cccnc1 : reported IC50 = 431
